System: stable HCV 2a JFH-1 Rluc replicon cells (L31 present in NS5A)
measurement description: Renilla luciferase HCV replicon reporter assay, genotype 2a JFH-1
Assay type: cell-based
applied conditions: Hepatitis C virus, read-out: 2a JFH (nM), genotype 2a JFH-1 replicon (L31 in NS5A), stable cells
property: EC50

Lab book: EC50 of "COC[C@H](NC(=O)OC)C(=O)N1[C@@H](C)CC[C@H]1c1nc2ccc3cc4c(cc3c2[nH]1)OCc1cc(-c2cnc([C@@H]3CC[C@H](C)N3C(=O)[C@@H](NC(=O)OC)C(C)C)[nH]2)ccc1-4" noted as 0.016 nM

Lab book: EC50 of "COC(=O)N[C@H](C(=O)N1[C@@H](C)CC[C@H]1c1nc2ccc3cc4c(cc3c2[nH]1)OCc1cc(-c2cnc([C@@H]3CC[C@H](C)N3C(=O)[C@@H](NC(=O)OC)[C@@H](C)OC(F)F)[nH]2)ccc1-4)[C@@H](C)OC" noted as 0.017 nM

Lab book: EC50 of "COC(=O)N[C@H](C(=O)N1[C@@H](C)CC[C@H]1c1nc2ccc3cc4c(cc3c2[nH]1)OCc1cc(-c2cnc([C@@H]3C[C@H](F)CN3C(=O)[C@@H](NC(=O)OC)[C@@H](C)OC)[nH]2)ccc1-4)C(C)C" noted as 0.026 nM

Lab book: EC50 of "CC[C@H](C)[C@H](NC(=O)OC)C(=O)N1C[C@@H](C)C[C@H]1c1nc2ccc3cc4c(cc3c2[nH]1)OCc1cc(-c2cnc([C@@H]3CC[C@H](C)N3C(=O)[C@@H](NC(=O)OC)C(C)C)[nH]2)ccc1-4" noted as 0.025 nM

###

Kindly supply the reported EC50 values for the records listed here.
Test system: NS5A chimeric genotype 1b Con1 replicon with genotype 3a S52 strain NS5A gene
measurement description: Replicon assay, genotype 3a NS5A chimera
Format: cell-based, HCV
applied conditions: Hepatitis C virus, read-out: 3a (s) (nM), genotype 3a NS5A chimeric replicon, stable replicon cells (s)

Lab book: EC50 of "COC(=O)N[C@H](C(=O)N1[C@@H](C)CC[C@H]1c1ncc(-c2ccc3c(c2)COc2cc4c(ccc5nc([C@@H]6CC[C@H](C)N6C(=O)[C@@H](NC(=O)OC)C6CCOCC6)[nH]c54)cc2-3)[nH]1)C(C)C" noted as 0.031 nM

Lab book: EC50 of "CC[C@H]1C[C@@H](c2nc3ccc4cc5c(cc4c3[nH]2)OCc2cc(-c3cnc([C@@H]4CC[C@H](C)N4C(=O)[C@@H](NC(=O)OC)C(C)C)[nH]3)ccc2-5)N(C(=O)[C@H](C)NC(=O)OC)C1" noted as 0.705 nM

###

Kindly supply the reported EC50 values for the records listed here.
Test system: stable HCV 1a RLuc replicon cells (dicistronic genotype 1a H77 replicon)
measurement description: Renilla luciferase HCV replicon reporter assay, genotype 1a
Format: cell-based
applied conditions: Hepatitis C virus, 72 h, stable 1a H77 RLuc replicon cells, activity range

Lab book: EC50 of CC[C@H](C)[C@H](NC(=O)OC)C(=O)N1[C@H](c2ncc(-c3ccc4c(c3)COc3cc5c(ccc6nc([C@@H]7CC[C@H](C)N7C(=O)[C@@H](NC(=O)OC)C7CCOCC7)[nH]c65)cc3-4)[nH]2)C[C@@H]2CCC[C@@H]21 [IL] noted as < 0.1 nM

Lab book: EC50 of COC(=O)N[C@H](C(=O)N1[C@@H](C)CC[C@H]1c1nc2ccc3cc4c(cc3c2[nH]1)OCc1cc(-c2cnc([C@@H]3[C@@H]5C[C@@H]5CN3C(=O)[C@@H](NC(=O)OC)C3CCOCC3)[nH]2)ccc1-4)C(C)C [HO] noted as < 0.1 nM

Lab book: EC50 of CC[C@H](C)[C@H](NC(=O)OC)C(=O)N1C[C@@H](C)C[C@H]1c1nc2ccc3cc4c(cc3c2[nH]1)OCc1cc(-c2cnc([C@@H]3CC[C@H](C)N3C(=O)[C@@H](NC(=O)OC)C(C)C)[nH]2)ccc1-4 [GR] noted as < 0.1 nM

Lab book: EC50 of COC(=O)N[C@H](C(=O)N1C[C@@H](C)C[C@H]1c1nc2ccc3cc4c(cc3c2[nH]1)OCc1cc(-c2cnc([C@@H]3CC[C@H](C)N3C(=O)[C@@H](NC(=O)OC)C(C)(C)C)[nH]2)ccc1-4)C(C)C [HX] noted as < 0.1 nM

###

System: NS5A chimeric genotype 2a JFH-1 replicon with genotype 2b MD2b-1 strain NS5A gene (M31 present)
measurement description: Replicon assay, genotype 2b NS5A chimera
Format: cell-based, HCV
applied conditions: Hepatitis C virus, read-out: 2b (s) (nM), genotype 2b MD2b-1 NS5A chimeric replicon (M31), stably replicating replicon cells (s)
Kindly supply the reported EC50 values for the records listed here.
Number in nM, nothing else.

Lab book: EC50 of "COC(=O)N[C@H](C(=O)N1[C@@H](C)CC[C@H]1c1ncc(-c2ccc3c(c2)COc2cc4c(ccc5nc([C@@H]6CC[C@H](C)N6C(=O)[C@@H](NC(=O)OC)C6CCOCC6)[nH]c54)cc2-3)[nH]1)C(C)C" noted as 0.048

Lab book: EC50 of "CC[C@H]1CC[C@@H](c2nc3ccc4cc5c(cc4c3[nH]2)OCc2cc(-c3cnc([C@@H]4CC[C@H](C)N4C(=O)[C@@H](NC(=O)OC)[C@@H](C)CC)[nH]3)ccc2-5)N1C(=O)[C@@H](NC(=O)OC)C1CCOCC1" noted as 0.181

Lab book: EC50 of "CC[C@H]1C[C@@H](c2nc3ccc4cc5c(cc4c3[nH]2)OCc2cc(-c3cnc([C@@H]4CC[C@H](C)N4C(=O)[C@@H](NC(=O)OC)C(C)C)[nH]3)ccc2-5)N(C(=O)[C@@H](NC(=O)OC)C(C)C)C1" noted as 1.73

Lab book: EC50 of "CC[C@H](C)[C@H](NC(=O)OC)C(=O)N1[C@H](c2ncc(-c3ccc4c(c3)COc3cc5c(ccc6nc([C@@H]7CC[C@H](C)N7C(=O)[C@@H](NC(=O)OC)C7CCOCC7)[nH]c65)cc3-4)[nH]2)C[C@@H]2CCC[C@@H]21" noted as 0.143

Lab book: EC50 of "CCC[C@H]1CC[C@@H](c2nc3ccc4cc5c(cc4c3[nH]2)OCc2cc(-c3cnc([C@@H]4CC[C@H](C)N4C(=O)[C@@H](NC(=O)OC)C(C)C)[nH]3)ccc2-5)N1C(=O)[C@@H](NC(=O)OC)C1CCOCC1" noted as 0.426

Lab book: EC50 of "CC[C@H]1CC[C@@H](c2nc3ccc4cc5c(cc4c3[nH]2)OCc2cc(-c3cnc([C@@H]4C[C@@H]6CCC[C@@H]6N4C(=O)[C@@H](NC(=O)OC)[C@@H](C)CC)[nH]3)ccc2-5)N1C(=O)[C@@H](NC(=O)OC)C1CCOCC1" noted as 0.236

Lab book: EC50 of "CC[C@H]1C[C@@H](c2nc3ccc4cc5c(cc4c3[nH]2)OCc2cc(-c3cnc([C@@H]4CC[C@H](C)N4C(=O)[C@@H](NC(=O)OC)C(C)C)[nH]3)ccc2-5)N(C(=O)[C@@H](NC(=O)OC)C2CCOCC2)C1" noted as 0.112

Lab book: EC50 of "CC[C@H](C)[C@H](NC(=O)OC)C(=O)N1[C@H](c2nc3ccc4cc5c(cc4c3[nH]2)OCc2cc(-c3cnc([C@@H]4CC[C@H](C)N4C(=O)[C@@H](NC(=O)OC)C4CCOCC4)[nH]3)ccc2-5)C[C@@H]2CCC[C@@H]21" noted as 0.118

Lab book: EC50 of "COC(=O)N[C@H](C(=O)N1[C@@H](C)CC[C@H]1c1ncc(-c2ccc3c(c2)COc2cc4c(ccc5nc([C@@H]6CC[C@H](C)N6C(=O)[C@@H](NC(=O)OC)C6CCCCC6)[nH]c54)cc2-3)[nH]1)C(C)C" noted as 1.59

###

Tested on: stable HCV 2a JFH-1 Rluc replicon cells (L31 present in NS5A)
measurement description: Renilla luciferase HCV replicon reporter assay, genotype 2a JFH-1
Type: cell-based
applied conditions: Hepatitis C virus, read-out: 2a JFH (nM), genotype 2a JFH-1 replicon (L31 in NS5A), stable cells
property: EC50 (nM)
Number in nM, nothing else.

Lab book: EC50 of "COC(=O)N[C@H](C(=O)N1CCC[C@H]1c1ncc(-c2ccc3c(c2)COc2cc4c(ccc5nc([C@@H]6CCCN6C(=O)[C@@H](NC(=O)OC)C6CCOCC6)[nH]c54)cc2-3)[nH]1)C1CCOCC1" noted as 0.041

Lab book: EC50 of CC[C@H](C)C(NC(=O)OC)C(=O)N1[C@@H](C)CC[C@H]1c1nc2ccc3cc4c(cc3c2[nH]1)OCc1cc(-c2cnc([C@@H]3CC[C@H](C)N3C(=O)[C@@H](NC(=O)OC)[C@@H](C)OC)[nH]2)ccc1-4 (stereo partly drawn) noted as 0.013

Lab book: EC50 of "CC[C@H]1CC[C@@H](c2ncc(-c3ccc4c(c3)COc3cc5c(ccc6nc([C@@H]7CC[C@H](C)N7C(=O)[C@@H](NC(=O)OC)C7CCOCC7)[nH]c65)cc3-4)[nH]2)N1C(=O)[C@@H](NC(=O)OC)C(C)C" noted as 0.015
